Where do the numbers come from? From ChEMBL document CHEMBL1125712.

Each entry below carries its reported IC50.
Assay system: Aldo-keto reductase family 1 member B1 (Homo sapiens)
Method: Inhibition of aldose reductase (aldo-keto reductase, AKR1B1) isolated from human placenta.

Molecule: O=C(O)Cc1nn(Cc2nc3cc(Cl)c(Cl)cc3s2)c(=O)c2ccccc12
IC50 [nM]: 420
--
Molecule: O=C(O)Cc1nn(CSc2nc3ccccc3s2)c(=O)c2ccccc12
IC50 [nM]: 81
--
Molecule: O=C(O)Cc1nn(Cc2ccc(Br)cc2F)c(=O)c2ccccc12
IC50 [nM]: 21
--
Molecule: O=C(O)Cc1nn(Cc2nc3cc(C(F)(F)F)c(O)cc3s2)c(=O)c2ccccc12
IC50 [nM]: 120
--
Molecule: O=C(O)Cc1nn(Cc2nc3c(Cl)ccc(Cl)c3s2)c(=O)c2ccccc12
IC50 [nM]: 20
--
Molecule: O=C(O)Cc1nn(Cc2nc3ccccc3s2)c(=O)c2cc(Cl)c(Cl)cc12
IC50 [nM]: 10
--
Molecule: COc1cc2nc(Cn3nc(CC(=O)O)c4ccccc4c3=O)sc2cc1F
IC50 [nM]: 2300
--
Molecule: O=C(O)Cc1nn(Cc2nc3ccccc3s2)c(=O)c2cc(Br)ccc12
IC50 [nM]: 690
--
Molecule: COc1ccc2c(CC(=O)O)nn(Cc3nc4ccccc4s3)c(=O)c2c1
IC50 [nM]: 26
--
Molecule: O=C(O)Cc1nn(Cc2nc3cc(Cl)ccc3s2)c(=O)c2ccccc12
IC50 [nM]: 7.1
--
Molecule: O=C(O)Cc1nn(Cc2nc3ccccc3s2)c(=O)c2cc(C(F)(F)F)ccc12
IC50 [nM]: 12
--
Molecule: O=C(O)Cc1nn(Cc2nc3ccccc3s2)c(=O)c2ccc(C(F)(F)F)cc12
IC50 [nM]: 18
--
Molecule: CC(c1nc2cc(C(F)(F)F)ccc2s1)n1nc(CC(=O)O)c2ccccc2c1=O (stereo unspecified)
IC50 [nM]: 37
--
Molecule: O=C(O)Cc1nn(Cc2nc3c(C(F)(F)F)cccc3s2)c(=O)c2ccccc12
IC50 [nM]: 25
--
Molecule: CC(C)c1ccc2c(=O)n(Cc3nc4ccccc4s3)nc(CC(=O)O)c2c1
IC50 [nM]: 110
--
Molecule: O=C(O)Cc1nn(Cc2nc3ccccc3s2)c(=O)c2cc(Cl)ccc12
IC50 [nM]: 15
--
Molecule: O=C(O)Cc1nn(Cc2nc3cc(F)ccc3s2)c(=O)c2ccccc12
IC50 [nM]: 6.9
--
Molecule: CC(C)c1ccc2c(CC(=O)O)nn(Cc3nc4ccccc4s3)c(=O)c2c1
IC50 [nM]: 110
--
Molecule: O=C(O)Cc1nn(Cc2nc3cc(Cl)cc(F)c3s2)c(=O)c2ccccc12
IC50 [nM]: 5
--
Molecule: O=C(O)Cc1nn(Cc2nc3ccccc3s2)c(=O)c2ccc(Br)cc12
IC50 [nM]: 12
--
Molecule: O=C(O)Cc1nn(Cc2nc3c(F)cccc3s2)c(=O)c2ccccc12
IC50 [nM]: 2
